Attribution: patent US20260184782A1

Quick list: Kd per entry.
Biological target: T1, recombinant human TIGIT (human, UniProt Q495A1 22-141, limits assumed)
T1 construct: recombinant human TIGIT used in Carterra SPR; also called hTIGIT
T1 sequence (looked up): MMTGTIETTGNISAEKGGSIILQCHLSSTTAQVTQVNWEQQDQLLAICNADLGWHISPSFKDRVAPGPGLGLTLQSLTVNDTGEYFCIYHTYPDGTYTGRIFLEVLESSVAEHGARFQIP
Test: SPR Carterra, average
Could you give me the number in nM? Just the number is fine.

Recorded Kd, per entry:
| binder | Kd / nM |
| --- | --- |
| TIGIT-SC54 (Fc fusion, VHH-Fc fusion in assay) VHH: EVQLVESGGGLVQPGGSLRLSCAASGFSFDDYVMGWFRQAPGKERELVAVIVGEAITRYADSVKGRFTISADNSKNTAYLQMNSLKPEDTAVYYCARRGGSGRAFDIWGQGTLVTVSS | 3.71 |
| TIGIT-SC193 (Fc fusion, VHH-Fc fusion in assay) VHH: EVQLVESGGGLVQPGGSLRLSCAASGFTFSDYWMGWFRQAPGKEREFVAAISRSGTLKAYADSVKGRFTISADNSKNTAYLQMNSLKPEDTAVYYCARGSGWPKIHFDYWGQGTLVTVSS | 841 |
| TIGIT-SC213 (Fc fusion, VHH-Fc fusion in assay) VHH: EVQLVESGGGLVQPGGSLRLSCAASGTFQRINAMGWFRQAPGKEREFVAAIWRSGTLKAYADSVKGRFTISADNSKNTAYLQMNSLKPEDTAVYYCARWVGASGDYWIDYWGQGTLVTVSS | 36.4 |
| TIGIT-SC187 (Fc fusion, VHH-Fc fusion in assay) VHH: EVQLVESGGGLVQPGGSLRLSCAASGFTFSPSWMGWFRQAPGKEREWVASVLRGGYTWYADSVKGRFTISADNSKNTAYLQMNSLKPEDTAVYYCTTDSLPGWGQGTLVTVSS | 17.2 |
| TIGIT-SC214 (Fc fusion, VHH-Fc fusion in assay) VHH: EVQLVESGGGLVQPGGSLRLSCAASGFTFGDSWMGWFRQAPGKEHEFVAAIWRSGTLKAYADSVKGRFTISADNSKNTAYLQMNSLKPEDTAVYYCTSYDAVAGTRDFWGQGTLVTVSS | 6.13 |

Next item in the queue.
Query: Fill blank: measured Kd of the binder TIGIT-SC9 (Fc fusion, VHH-Fc fusion in assay) VHH: EVQLVESGGGLVQPGGSLRLSCAASGNTFSGGFMGWFRQAPGKEREWVASVLRGGYTWYADSVKGRFTISADNSKNTAYLQMNSLKPEDTAVYYCVNGYSYGRDYWGQGTLVTVSS is ____.
Reply: 9.35
